Each item that follows carries a reported MIC.
System: Pseudomonas aeruginosa (ATCC 27853)
Format: cell-based
Details: P. aeruginosa ATCC 27853, MHB, 18 hours at 37° C., mean of three
Where no end group is shown, it is not given here.

| substance | MIC |
| --- | --- |
| Lys Phe Arg Ala Trp Val Arg (KFRAWVR; not fully specified (bridges); printed as Lys Phe Arg Ala Trp Val Arg; also: cyclic topology, ring type not given here) [Pem-1002 C] | >50 µg/mL |
| Lys Lys Trp Arg Lys Trp Leu Arg Ala Ile Ala Lys Lys (KKWRKWLRAIAKK; not fully specified (bridges); printed as Lys Lys Trp Arg Lys Trp Leu Arg Ala Ile Ala Lys Lys; also: cyclic topology, ring type not given here) [Pem-2252 C] | >50 µg/mL |
| Lys Lys Trp Arg Lys Trp Leu Lys Trp Leu Ala Lys Lys (KKWRKWLKWLAKK; not fully specified (bridges); printed as Lys Lys Trp Arg Lys Trp Leu Lys Trp Leu Ala Lys Lys; also: cyclic topology, ring type not given here) [Pem-2254 C] | 25 µg/mL |
| Lys Lys Trp Arg Ala Trp Leu Lys Trp Leu Ala Lys Lys (KKWRAWLKWLAKK; not fully specified (bridges); printed as Lys Lys Trp Arg Ala Trp Leu Lys Trp Leu Ala Lys Lys; also: cyclic topology, ring type not given here) [Pem-2251 C] | 25 µg/mL |
| Lys Phe Lys Arg Trp Leu Ala (KFKRWLA; not fully specified (bridges); printed as Lys Phe Lys Arg Trp Leu Ala; also: cyclic topology, ring type not given here) [Pem-1001 C] | >50 µg/mL |

====

Tested on: E. coli (ATCC 25922)
Type: cell-based
Conditions: E. coli ATCC 25922, MHB, 18 hours at 37° C., mean of three
Where no end group is shown, it is not given here.
quantity.measured: MIC

| substance | experimental.result |
| --- | --- |
| Lys Phe Arg Ala Trp Val Arg (KFRAWVR; not fully specified (bridges); printed as Lys Phe Arg Ala Trp Val Arg; also: cyclic topology, ring type not given here) [Pem-1002 C] | >50 µg/mL |
| Lys Lys Trp Arg Lys Trp Leu Arg Ala Ile Ala Lys Lys (KKWRKWLRAIAKK; not fully specified (bridges); printed as Lys Lys Trp Arg Lys Trp Leu Arg Ala Ile Ala Lys Lys; also: cyclic topology, ring type not given here) [Pem-2252 C] | >50 µg/mL |
| Lys Phe Lys Arg Trp Leu Ala (KFKRWLA; not fully specified (bridges); printed as Lys Phe Lys Arg Trp Leu Ala; also: cyclic topology, ring type not given here) [Pem-1001 C] | >50 µg/mL |
